src = patent US20220235135A1

- TARGET UNDER TEST: T1, Human GAL9 protein (Galectin-9) (human, UniProt O00182 1-355)
- T1 construct: Bought His-tagged protein; also called hGAL9; Human Gal9 His-tag (Acro Biosystems Cat #LG9-H5244)
- T1 sequence (O00182 whole entry): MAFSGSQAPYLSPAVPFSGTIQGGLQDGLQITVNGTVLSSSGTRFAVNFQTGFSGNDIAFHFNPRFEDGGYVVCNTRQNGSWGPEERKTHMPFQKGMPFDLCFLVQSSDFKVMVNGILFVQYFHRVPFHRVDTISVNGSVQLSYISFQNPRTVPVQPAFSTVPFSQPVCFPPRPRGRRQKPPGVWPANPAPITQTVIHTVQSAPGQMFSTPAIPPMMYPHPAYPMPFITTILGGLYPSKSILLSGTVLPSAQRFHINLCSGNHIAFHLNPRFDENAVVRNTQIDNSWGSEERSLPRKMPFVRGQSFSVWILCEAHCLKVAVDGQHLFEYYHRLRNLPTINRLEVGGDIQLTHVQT
- METHOD DESCRIPTION: Octet BLI, IgG1 on biosensor, GAL9 analyte dilution series, global fit (monovalent affinity)
pKd: −log10 of the molar value.
PROPERTY MEASURED: pKd

[[record]]
binder = "P9-32 (antibody, human IgG1, kappa, V domains shown, bivalent monospecific native human full-length IgG1; also called ABS clone P9-32) VH: EVQLVESGGGLVQPGGSLRLSCAASGFTFSAYWIHWVRQAPGKGLEWVALIGPDGGYTYYADSVKGRFTISADTSKNTAYLQMNSLRAEDTAVYYCARQASRGLDYWGQGTLVTVSS VL: DIQMTQSPSSLSASVGDRVTITCRASQSVSSAVAWYQQKPGKAPKLLIYSASSLYSGVPSRFSGSRSGTDFTLTISSLQPEDFATYYCQQWSSPLHTFGQGTKVEIKR"
quantitative_readout = 8.97

[[record]]
binder = "P9-28 (antibody, human IgG1, kappa, V domains shown, bivalent monospecific native human full-length IgG1; also called ABS clone P9-28; α-GAL9 (P9-28)) VH: EVQLVESGGGLVQPGGSLRLSCAASGFTFGFYYIHWVRQAPGKGLEWVAFIDPHGGSTYYADSVKGRFTISADTSKNTAYLQMNSLRAEDTAVYYCARLSYPGVLDYWGQGTLVTVSS VL: DIQMTQSPSSLSASVGDRVTITCRASQSVSSAVAWYQQKPGKAPKLLIYSASSLYSGVPSRFSGSRSGTDFTLTISSLQPEDFATYYCQQGYSTLVTFGQGTKVEIKR"
quantitative_readout = 8.47

[[record]]
binder = "P9-18 (antibody, human IgG1, kappa, V domains shown, the murine IgG backbones were used only in vivo; also called ABS clone P9-18; Clone 18) VH: EVQLVESGGGLVQPGGSLRLSCAASGFTFSWYVIHWVRQAPGKGLEWVAAIYPYHSKTYYADSVKGRFTISADTSKNTAYLQMNSLRAEDTAVYYCARGYWYGMDYWGQGTLVTVSS VL: DIQMTQSPSSLSASVGDRVTITCRASQSVSSAVAWYQQKPGKAPKLLIYSASSLYSGVPSRFSGSRSGTDFTLTISSLQPEDFATYYCQQYTDAPWTFGQGTKVEIKR"
quantitative_readout = 8.20

[[record]]
binder = "P9-10 (antibody, human IgG1, kappa, V domains shown, bivalent monospecific native human full-length IgG1; also called ABS clone P9-10) VH: EVQLVESGGGLVQPGGSLRLSCAASGFTFDYYVIHWVRQAPGKGLEWVAAIDSYWGDTYYADSVKGRFTISADTSKNTAYLQMNSLRAEDTAVYYCARFYFYGFDYWGQGTLVTVSS VL: DIQMTQSPSSLSASVGDRVTITCRASQSVSSAVAWYQQKPGKAPKLLIYSASSLYSGVPSRFSGSRSGTDFTLTISSLQPEDFATYYCQQYSWSLWTFGQGTKVEIKR"
quantitative_readout = 8.24

